- target system: human CTPS1 (Homo sapiens, UniProt P17812)
- Construct: FLAG (with GG linker); His8 (with GG linker); purchased Proteros biostructures GmbH
- Sequence (P17812 1-591): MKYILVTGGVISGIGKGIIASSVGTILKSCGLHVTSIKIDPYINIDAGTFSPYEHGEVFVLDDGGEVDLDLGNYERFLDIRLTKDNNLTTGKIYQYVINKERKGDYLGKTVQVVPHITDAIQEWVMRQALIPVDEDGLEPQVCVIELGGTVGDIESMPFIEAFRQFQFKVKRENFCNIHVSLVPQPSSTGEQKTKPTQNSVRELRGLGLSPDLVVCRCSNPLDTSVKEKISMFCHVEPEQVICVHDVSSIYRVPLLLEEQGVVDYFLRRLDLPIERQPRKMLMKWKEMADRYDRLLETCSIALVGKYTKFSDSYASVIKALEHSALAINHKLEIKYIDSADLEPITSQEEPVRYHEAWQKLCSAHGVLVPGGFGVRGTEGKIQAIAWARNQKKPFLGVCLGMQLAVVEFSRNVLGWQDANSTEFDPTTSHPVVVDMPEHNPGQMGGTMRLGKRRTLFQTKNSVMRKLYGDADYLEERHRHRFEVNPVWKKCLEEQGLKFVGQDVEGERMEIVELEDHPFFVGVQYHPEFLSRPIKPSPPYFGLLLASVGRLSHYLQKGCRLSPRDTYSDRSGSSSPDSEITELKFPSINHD
- protocol notes: Human CTPS1 enzyme inhibition, ADP-Glo Max assay
- Assay type: biochemical
- measurement context: ADP-Glo Max assay; Table 10; read-out: Human CTPS1 Enzyme Inhibition, IC50 grouped by potency range (CTPS1)
pIC50: −log10 of the molar value.
readout type: pIC50

Consider the molecule "COc1cncc(-c2ccc(NC(=O)Cc3csc(NS(=O)(=O)C4CCC4)n3)cc2)n1" and give its measured pIC50. > 7.00

Consider the molecule "Cc1c(Cl)cncc1-c1ccc(NC(=O)C(C)(C)c2csc(NS(=O)(=O)C3CC3)n2)cc1" and give its measured pIC50. 6.00 to 7.00

Consider the molecule "CCOc1cncc(-c2ccc(NC(=O)C(C)(C)c3csc(NS(=O)(=O)C4CCC4)n3)cc2)n1" and give its measured pIC50. > 7.00

Consider the molecule "Cc1cc(-c2cncc(F)c2)ccc1NC(=O)C(C)(C)c1csc(NS(=O)(=O)C2CC2)n1" and give its measured pIC50. > 7.00

Consider the molecule "O=C(Cc1csc(NS(=O)(=O)C2CC2)n1)Nc1ccc(-c2cncc(CO)c2)cc1" and give its measured pIC50. 6.00 to 7.00

Consider the molecule "COc1cncc(-c2cnc(NC(=O)C(C)(C)c3csc(NS(=O)(=O)C4CC4)n3)nc2)c1" and give its measured pIC50. 6.00 to 7.00

Consider the molecule "CC(C)(C(=O)Nc1ccc(-c2cncc(N3CCOCC3)n2)cc1)c1csc(NS(=O)(=O)C2CC2)n1" and give its measured pIC50. 5.00 to 6.00

Consider the molecule COC(C(=O)Nc1ccc(-c2cncc(C(F)(F)F)n2)cc1F)c1csc(NS(=O)(=O)C2CC2)n1 (single isomer, unassigned) [T458] and give its measured pIC50. > 7.00

Consider the molecule "COc1cc(-c2cccnc2)ccc1NC(=O)Cc1csc(NS(=O)(=O)C2CC2)n1" and give its measured pIC50. > 7.00

Consider the molecule "COc1cncc(-c2ccc(NC(=O)C3(c4csc(NS(=O)(=O)C5CC5)n4)CCCC3)cc2)n1" and give its measured pIC50. > 7.00

Consider the molecule "CC(C)(C(=O)Nc1ccc(-c2cccnc2)c(F)c1F)c1csc(NS(=O)(=O)C2CC2)n1" and give its measured pIC50. 6.00 to 7.00

Consider the molecule "CC(C)(C(=O)Nc1ccc(-c2cncc(C(F)(F)F)n2)cc1)c1csc(NS(=O)(=O)C(C)(C)C)n1" and give its measured pIC50. 6.00 to 7.00

Consider the molecule "Cc1ccncc1-c1ccc(NC(=O)C(C)(C)c2csc(NS(=O)(=O)C3CC3)n2)cc1" and give its measured pIC50. 6.00 to 7.00

Consider the molecule "COc1cccc(-c2ccc(NC(=O)C(C)(C)c3csc(NS(=O)(=O)C4CC4)n3)nc2)c1" and give its measured pIC50. 6.00 to 7.00

Consider the molecule "CCC(CC)(C(=O)Nc1ccc(-c2cncc(C#N)c2)cc1)c1csc(NS(=O)(=O)C2CC2)n1" and give its measured pIC50. > 7.00

Consider the molecule "COc1ccnc(-c2ccc(NC(=O)C(C)(C)c3csc(NS(=O)(=O)C4CC4)n3)cc2)c1" and give its measured pIC50. 5.00 to 6.00

* * *

- target system: human CTPS1 (Homo sapiens, UniProt P17812)
- Construct: FLAG (with GG linker); His8 (with GG linker); purchased Proteros biostructures GmbH
- Sequence (P17812 1-591): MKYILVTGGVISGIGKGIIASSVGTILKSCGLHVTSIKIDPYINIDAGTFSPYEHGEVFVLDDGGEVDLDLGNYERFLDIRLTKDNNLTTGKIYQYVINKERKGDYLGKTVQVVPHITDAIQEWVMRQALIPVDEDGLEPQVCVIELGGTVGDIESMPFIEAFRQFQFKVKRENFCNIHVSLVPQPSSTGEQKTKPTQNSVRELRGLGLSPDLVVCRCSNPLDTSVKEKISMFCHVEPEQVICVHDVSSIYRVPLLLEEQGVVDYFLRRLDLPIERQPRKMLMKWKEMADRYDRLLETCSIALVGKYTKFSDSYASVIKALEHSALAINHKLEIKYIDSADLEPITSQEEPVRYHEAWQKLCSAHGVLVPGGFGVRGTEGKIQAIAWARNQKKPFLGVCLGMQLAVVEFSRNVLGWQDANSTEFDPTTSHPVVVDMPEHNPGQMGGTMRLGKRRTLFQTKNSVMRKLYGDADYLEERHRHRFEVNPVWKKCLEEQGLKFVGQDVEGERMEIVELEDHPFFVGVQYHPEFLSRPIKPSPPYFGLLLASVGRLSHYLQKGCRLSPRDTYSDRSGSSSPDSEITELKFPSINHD
- protocol notes: Human CTPS1 enzyme inhibition, ADP-Glo Max assay
- Format: biochemical
- measurement context: Table 12, ADP-Glo Max assay; read-out: CTPS1 (Human CTPS1 Enzyme Inhibition data grouped by potency range)
pIC50: −log10 of the molar value.
readout type: pIC50

Consider the molecule CCOc1cncc(-c2ccc(NC(=O)C3(c4ccnc(NS(=O)(=O)C5CC5)n4)CCN(S(=O)(=O)N(C)C)CC3)nc2)n1 [P291] and give its measured pIC50. > 7.00

Consider the molecule COC1CCC(C(=O)Nc2ccc(-c3cncc(C4CC4)n3)cn2)(c2ccnc(NS(=O)(=O)C3CC3)n2)CC1 (stereo not shown) [P313] and give its measured pIC50. > 7.00

Consider the molecule CS(=O)(=O)N1CCC(C(=O)Nc2ccc(-c3cncc(C4CC4)n3)cn2)(c2nccc(NS(=O)(=O)C3CC3)n2)CC1 [P315] and give its measured pIC50. > 7.00

Consider the molecule CCOc1cncc(-c2ccc(NC(=O)C3(c4ccnc(NS(=O)(=O)C5CC5)n4)CCC(N4CCN(C)CC4)CC3)nc2)n1 (stereo not shown) [P311] and give its measured pIC50. 6.00 to 7.00

Consider the molecule CCOc1cncc(-c2ccc(NC(=O)C3(c4ccnc(NS(=O)(=O)C5CC5)n4)CCC(N4CCCC4)CC3)nc2)n1 (stereo not shown) [P303] and give its measured pIC50. 6.00 to 7.00

Consider the molecule CCOc1cncc(-c2ccc(NC(=O)C3(c4ccnc(NS(=O)(=O)C5CC5)n4)CCC(N)CC3)nc2)n1 (stereo not shown) [P304] and give its measured pIC50. > 7.00

Consider the molecule CCOc1cnc(-c2ccc(NC(CC)c3ccnc(NS(=O)(=O)C4CC4)n3)cc2)cn1 (stereo not shown) [P261] and give its measured pIC50. 6.00 to 7.00

* * *

- target system: human CTPS1 (Homo sapiens)
- Construct: FLAG (with GG linker); His8 (with GG linker); purchased Proteros biostructures GmbH
- Sequence (P17812 1-591): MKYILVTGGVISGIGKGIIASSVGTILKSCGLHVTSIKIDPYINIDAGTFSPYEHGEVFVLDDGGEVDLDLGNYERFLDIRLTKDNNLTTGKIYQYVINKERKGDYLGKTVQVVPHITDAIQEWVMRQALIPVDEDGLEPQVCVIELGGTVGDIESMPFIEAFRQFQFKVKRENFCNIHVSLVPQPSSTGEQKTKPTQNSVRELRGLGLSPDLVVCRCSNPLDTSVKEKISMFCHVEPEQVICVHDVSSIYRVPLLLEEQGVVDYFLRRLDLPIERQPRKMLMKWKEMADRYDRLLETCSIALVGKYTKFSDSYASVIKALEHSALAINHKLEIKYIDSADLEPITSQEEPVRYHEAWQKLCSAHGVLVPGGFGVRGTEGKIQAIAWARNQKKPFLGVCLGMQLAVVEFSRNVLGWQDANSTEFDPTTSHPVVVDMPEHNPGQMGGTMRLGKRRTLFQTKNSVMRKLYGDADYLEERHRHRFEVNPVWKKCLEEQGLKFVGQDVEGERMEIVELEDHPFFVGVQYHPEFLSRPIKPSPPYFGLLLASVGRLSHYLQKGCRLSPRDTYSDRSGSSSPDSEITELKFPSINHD
- protocol notes: Human CTPS1 enzyme inhibition, ADP-Glo Max assay
- Format: biochemical
- measurement context: ADP-Glo Max assay; Table 10; read-out: Human CTPS1 Enzyme Inhibition, IC50 grouped by potency range (CTPS1)
readout type: IC50

Could you share what IC50 was measured for CCC(C(=O)Nc1ccc(-c2cncc(C(F)(F)F)n2)cc1)c1csc(NS(=O)(=O)C2CC2)n1 (single isomer, unassigned) [T106] , tested on human CTPS1 (Homo sapiens)? < 100 nM

Could you share what IC50 was measured for CC(C)(C(=O)Nc1ccc(-c2cncc(Cl)c2)cc1)c1csc(NS(=O)(=O)C2(C)CC2)n1 [T300] , tested on human CTPS1 (Homo sapiens)? 100 to 1000 nM

Could you share what IC50 was measured for CCOc1cncc(-c2ccc(NC(=O)C(C)(C)c3csc(NS(=O)(=O)C4CC4)n3)c(F)c2)c1 [T125] , tested on human CTPS1 (Homo sapiens)? < 100 nM

Could you share what IC50 was measured for CC(C)(C(=O)Nc1ccc(-c2cncc(C#N)n2)cn1)c1csc(NS(=O)(=O)C2CC2)n1 [T263] , tested on human CTPS1 (Homo sapiens)? 1000 to 10000 nM

Could you share what IC50 was measured for CC(C)(C(=O)Nc1ccc(-c2cncc(C#N)n2)cc1)c1csc(NS(=O)(=O)C2CC2)n1 [T154] , tested on human CTPS1 (Homo sapiens)? 100 to 1000 nM

Could you share what IC50 was measured for CC(C)(C(=O)Nc1ccc(-c2cncc(C(F)(F)F)n2)cc1)c1csc(NS(=O)(=O)C2(C)CC2)n1 [T302] , tested on human CTPS1 (Homo sapiens)? 100 to 1000 nM

Could you share what IC50 was measured for Cc1cncc(-c2ccc(NC(=O)C(C)(C)c3csc(NS(=O)(=O)C4CC4)n3)nc2)n1 [T464] , tested on human CTPS1 (Homo sapiens)? < 100 nM

Could you share what IC50 was measured for Cc1cncc(-c2ccc(NC(=O)C(C)(C)c3csc(NS(=O)(=O)C4CC4)n3)cc2)c1 [T30] , tested on human CTPS1 (Homo sapiens)? < 100 nM
